assay: Selectivity index, ratio of ED50 for human HaCaT cells to MIC for Escherichia coli K-12 W3110 ATCC 27325; type: toxicity; conditions: read-out: Selectivity Index
Square brackets hold non-standard residues; d marks the D form. Peptide text beside a SMILES is read from it. N(4-F-Bzl)Gly = O=C(O)CNCc1ccc(F)cc1; Gly(N-(CH2)6NH2) = NCCCCCCNCC(=O)O; Nspe = C[C@H](NCC(=O)O)c1ccccc1; NhArg = N=C(N)NCCCCNCC(=O)O; Nphe = O=C(O)CNCc1ccccc1; Nlys = NCCCCNCC(=O)O
Rule: measured selectivity ratio below 4 gets YES; anything equal to or greater than 4 gets NO.

These solved cases illustrate the format of a correct answer.
molecule	label
C[C@H](c1ccccc1)N(CC(N)=O)C(=O)CN(C(=O)CN(CCCCN)C(=O)CN(C(=O)CN(C(=O)CN(CCCCN)C(=O)CN(C(=O)CN(C(=O)CNCCCCN)[C@H](C)c1ccccc1)[C@@H](C)c1ccccc1)[C@H](C)c1ccccc1)[C@@H](C)c1ccccc1)[C@H](C)c1ccccc1 (stereo in doubt)	NO
N=C(N)NCCCCNCC(=O)N(CC(=O)N(CC(=O)N(CCCCNC(=N)N)CC(=O)N(CC(=O)N(CC(=O)N(CCCCNC(=N)N)CC(=O)N(CC(=O)N(CC(=O)N(CCCCNC(=N)N)CC(=O)N(CC(=O)N(CC(N)=O)Cc1ccccc1)Cc1ccccc1)Cc1ccccc1)Cc1ccccc1)Cc1ccccc1)Cc1ccccc1)Cc1ccccc1)Cc1ccccc1 (H-[NhArg][Nphe][Nphe][NhArg][Nphe][Nphe][NhArg][Nphe][Nphe][NhArg][Nphe][Nphe]-NH2)	NO
NCCCCCCNCC(=O)N(CC(=O)N(CC(=O)N(CCCCCCN)CC(=O)N(CC(=O)N(CC(N)=O)Cc1ccccc1)Cc1ccccc1)Cc1ccccc1)Cc1ccccc1 (H-[Gly(N-(CH2)6NH2)][Nphe][Nphe][Gly(N-(CH2)6NH2)][Nphe][Nphe]-NH2)	YES
NCCCCNCC(=O)N(CC(=O)N(CC(=O)N(CCCCN)CC(=O)N(CC(=O)N(CC(=O)N(CCCCN)CC(=O)N(CC(=O)N(CC(N)=O)Cc1ccc(F)cc1)Cc1ccc(F)cc1)Cc1ccc(F)cc1)Cc1ccc(F)cc1)Cc1ccc(F)cc1)Cc1ccc(F)cc1 (H-[Nlys][N(4-F-Bzl)Gly][N(4-F-Bzl)Gly][Nlys][N(4-F-Bzl)Gly][N(4-F-Bzl)Gly][Nlys][N(4-F-Bzl)Gly][N(4-F-Bzl)Gly]-NH2)	NO

Could you now consider this next molecule?
Incoming: Input C[C@@H](c1ccccc1)N(CC(N)=O)C(=O)CN(C(=O)CN(CCCCN)C(=O)CN(C(=O)CN(C(=O)CN(CCCCN)C(=O)CN(C(=O)CN(C(=O)CN(CCCCNC(=N)N)C(=O)CN(C(=O)CN(C(=O)CNCCCCNC(=N)N)[C@@H](C)c1ccccc1)[C@@H](C)c1ccccc1)[C@@H](C)c1ccccc1)[C@@H](C)c1ccccc1)[C@@H](C)c1ccccc1)[C@@H](C)c1ccccc1)[C@@H](C)c1ccccc1 (H-[NhArg][Nspe][Nspe][NhArg][Nspe][Nspe][Nlys][Nspe][Nspe][Nlys][Nspe][Nspe]-NH2) ; condition: selectivity ratio strictly below 4. Does it hold?
Outgoing: YES

* * *

test: Selectivity index, ratio of ED50 for human HaCaT cells to MIC for Staphylococcus epidermidis clinical isolate; format: toxicity; conditions: read-out: Selectivity Index
Square brackets hold non-standard residues; d marks the D form. Peptide text beside a SMILES is read from it. Nspe = C[C@H](NCC(=O)O)c1ccccc1; NhArg = N=C(N)NCCCCNCC(=O)O
I'd be grateful if you could share measured selectivity ratio for these entries.
Give bare numbers.

compound	numeric value
C[C@@H](c1ccccc1)N(CC(N)=O)C(=O)CN(C(=O)CN(CCCCNC(=N)N)C(=O)CN(C(=O)CN(C(=O)CN(CCCCNC(=N)N)C(=O)CN(C(=O)CN(C(=O)CN(CCCCNC(=N)N)C(=O)CN(C(=O)CN(C(=O)CNCCCCNC(=N)N)[C@@H](C)c1ccccc1)[C@@H](C)c1ccccc1)[C@@H](C)c1ccccc1)[C@@H](C)c1ccccc1)[C@@H](C)c1ccccc1)[C@@H](C)c1ccccc1)[C@@H](C)c1ccccc1 (H-[NhArg][Nspe][Nspe][NhArg][Nspe][Nspe][NhArg][Nspe][Nspe][NhArg][Nspe][Nspe]-NH2)	20

// next item, selectivity ratio requested
Incoming: Consider the compound CC(c1ccccc1)N(CC(=O)N(CCCCN)CC(=O)N(CC(=O)N(CC(=O)N(CCCCN)CC(=O)N(CC(=O)N(CC(N)=O)[C@@H](C)c1ccccc1)[C@@H](C)c1ccccc1)Cc1ccc(F)cc1)Cc1ccc(F)cc1)C(=O)CN(C(=O)CN(CCCCN)C(=O)CN(Cc1ccc(F)cc1)C(=O)CN(Cc1ccc(F)cc1)C(=O)CNCCCCN)[C@@H](C)c1ccccc1 (single isomer, unassigned) and give its measured selectivity ratio.
Outgoing: 100
